Test system: Mycolicibacterium smegmatis
assay.protocol: Antimicrobial activity against Mycobacterium smegmatis
Type: functional
experimental.endpoint: MIC50

Field: example entries. Status: answers known.
C#CCOC(=O)c1ccc(S(N)(=O)=O)cc1; > 100 µg/mL
C#CCNC(=O)c1ccc(S(N)(=O)=O)cc1; > 100 µg/mL
NS(=O)(=O)c1ccc(-n2cc(CO)nn2)cc1; > 100 µg/mL
NS(=O)(=O)c1ccc(C(=O)NCc2cn(-c3ccc(S(N)(=O)=O)cc3)nn2)cc1; 100 µg/mL
CN[C@@H]1[C@H](O[C@H]2[C@H](O[C@H]3[C@H](O)[C@@H](O)[C@H](N=C(N)N)[C@@H](O)[C@@H]3N=C(N)N)O[C@@H](C)[C@]2(O)C=O)O[C@@H](CO)[C@H](O)[C@H]1O [STREPTOMYCIN]; 500 µg/mL

Answer with the recorded MIC50 of NS(=O)(=O)c1ccc(C(=O)O)cc1 [CARZENIDE] only.
> 100 µg/mL

Read the entry NS(=O)(=O)c1ccc(C(=O)OCc2cn(-c3ccc(S(N)(=O)=O)cc3)nn2)cc1 and write its reported MIC50.
< 25 µg/mL

Write down MIC50 measured for item Nc1ccc(S(N)(=O)=O)cc1 [SULFANILAMIDE]
> 100 µg/mL
